# System: E. multilocularis metacestode vesicles
# procedure summary: Phosphoglucose isomerase (PGI) release assay (damage-marker release) on metacestode vesicles
# Assay type: cell-based, Echinococcus multilocularis
# particulars: overview screen, 10 μM, singlets, 5 days, relative to 0.1 % Triton X-100, DMSO subtracted
Please provide measured PGI d5 (relative PGI release) for the entries that follow.
Give bare numbers, in %.

COc1ccc(OCc2ccc(COc3c(Cl)cccc3Cl)cc2)c(Cl)c1 [MMV1580485] | -0.2661
C[C@@]1(O)[C@H](O)[C@@H](CO)O[C@H]1n1ccc2c(N)ncnc21 [MMV1593519] | 0.01923
Nc1nc(=O)c(Br)c(-c2ccccc2)[nH]1 [MMV690540] | 2.1344
CC(C)(C)c1ccc(Oc2ccc(N)cc2)cc1 [MMV1174026] | -0.5482
CO/N=C(\C(=O)N[C@@H]1C(=O)N2C(C(=O)OCOC(=O)C(C)(C)C)=C(/C=C\c3scnc3C)CS[C@H]12)c1csc(N)n1 [MMV002560] | -2.539
O=C(Nc1nnc(-c2ccc(Cl)cc2)o1)c1nc2ccccc2s1 [MMV102833] | 3.0788

The following compounds each have a reported value; give each one's PGI d5 (relative PGI release).
1. CC(C)N=c1cc2n(-c3ccc(Cl)cc3)c3ccccc3nc-2cc1Nc1ccc(Cl)cc1 [MMV687800]
2. CNCC(=O)OCc1cccnc1N(C)C(=O)OC(C)[n+]1cnn(C[C@](O)(c2cc(F)ccc2F)[C@@H](C)c2nc(-c3ccc(C#N)cc3)cs2)c1 (stereo partly shown) [MMV1634494]
3. NNC(=O)c1ccncc1 [MMV002169]
4. Nc1cccc(-c2nc(N)nc(NC3Cc4ccccc4C3)n2)c1 [MMV1581555]

Result ::
1: 10.9227; 2: -2.972; 3: 1.814; 4: 2.438

Please look at the items below and tell me PGI d5 (relative PGI release) for each one, in order.
1. Clc1ccc(Cn2c(CN3CCCC3)nc3ccccc32)cc1 [MMV002015]
2. CC(=O)NC[C@H]1CN(c2ccc(N3CCSCC3)c(F)c2)C(=O)O1 [MMV688756]
3. N#Cc1cc([N+](=O)[O-])ccc1Oc1ccccc1Cl [MMV1580800]
4. O=c1cc(OCc2ccccc2)ccn1Cc1ccccc1 [MMV1579775]
5. NCC(=O)Nc1ccc(-n2nc(C(F)(F)F)cc2-c2ccc3c(ccc4ccccc43)c2)cc1 [MMV1578560]
6. O=C(Cn1cnc2ccccc2c1=O)Nc1ccccc1 [MMV1578891]
7. CC(C)(C)c1ccc(C(Cn2cccc(C(F)(F)F)c2=O)NC2Cc3ccccc3C2)cc1 (stereo not shown) [MMV1634393]

Result ::
-0.9034
-1.412
1.0953
-1.928
3.295
-0.325
-0.3467

Required: PGI d5 (relative PGI release), one value per compound below.
1. NC(=S)N/N=C/c1ncccc1N [MMV1580496]
2. CC[N+]1(C/C2=C/CCCCCC2)CCC(NC(=O)C2c3cc(Cl)ccc3Oc3ccc(Cl)cc32)CC1.[I-] (stereo not shown) [MMV1580489]
3. COc1cc(C2C3=C(CC(C)(C)CC3=O)Nc3ccccc3N2C(C)=O)ccc1OCc1ccccc1 (stereo not shown) [MMV1634557]

Result ::
-0.2661
1.482
-2.659

Quick request: PGI d5 (relative PGI release) for each listed item, please.
1. O=c1cc(Nc2ccc3ccccc3c2)[nH]c(=O)[nH]1 [MMV1581546]
2. Cc1ccc(N2CCC(CCOc3ccc(S(C)(=O)=O)cc3)CC2)nn1 [MMV1634394]
3. COc1nc2ccc(Br)cc2cc1[C@@H](c1ccccc1)[C@@](O)(CCN(C)C)c1cccc2ccccc12 [MMV689758]

Result ::
-1.553
0.369
-2.925

Can you give me PGI d5 (relative PGI release) for all of these, one by one?
1. O=C1C=C(c2ccccc2)S(=O)(=O)c2ccccc21 [MMV1006203]
2. NC[C@H]1OB(O)c2c(OCCCO)cccc21 [MMV1578566]
3. CC1(C)Cc2c(C#N)c(SCCc3ccccc3)nc(N3CCOCC3)c2CO1 [MMV1549626]
4. Cc1oncc1C(=O)Nc1ccc(C(F)(F)F)cc1 [MMV003291]

Result ::
1. 0.2239
2. 0.6057
3. -2.265
4. 0.3849

# map each compound to its PGI d5 (relative PGI release)
1. CC(C)(C)c1cc(C(=O)/C(C#N)=N/Nc2cccc(Cl)c2)no1 [ESI-09]
2. CC(C)c1ccc(COc2cccc(-c3cc([S+](C)[O-])c(C#N)c(=O)[nH]3)c2)cc1 (stereo not shown) [MMV1582497]
3. CN(O)C(=O)c1cc2c(CN3CCC[C@H]3C(N)=O)cn(Cc3ccc(F)cc3)c2cn1 [MMV1782386]
4. CCC[C@H](NC(=O)[C@@H]1[C@H]2CCC[C@H]2CN1C(=O)[C@@H](NC(=O)[C@@H](NC(=O)c1cnccn1)C1CCCCC1)C(C)(C)C)C(=O)C(=O)NC1CC1 [MMV1580494]
5. CN(C)[C@@H]1C(=O)C(C(N)=O)=C(O)[C@@]2(O)C(=O)C3=C(O)c4c(O)c(NC(=O)CN5CCCC5)cc(F)c4C[C@H]3C[C@@H]12.Cl.Cl [MMV1578574]
6. C[N+]1(C)CCCC(OC(=O)C(O)(c2ccccc2)c2ccccc2)C1 (stereo not shown) [MMV002676]

Result ::
1. 33.0513
2. 3.781
3. 0.7573
4. 0.1247
5. -1.676
6. -4.414

According to the records, this compound CCC[C@@H]1C[C@@H](C(=O)N[C@@H]([C@H]2O[C@H](SC)[C@H](O)[C@@H](O)[C@H]2O)[C@H](C)Cl)N(C)C1.Cl [MMV000051] displays PGI d5 (relative PGI release) of 15.4885
